These entries and their values trace back to ChEMBL document CHEMBL4819098.

assay_info: Selectivity index, ratio of IC50 for ovine COX-1 to IC50 for human recombinant COX-2
endpoint: Ratio IC50
Quick one: just the number, no unit, thanks!

Entry under review: COc1cc(Cc2n[nH]c(=S)n(/N=C/c3cc4ccc(OCc5ccccc5)cc4nc3Cl)c2=O)cc(OC)c1OC . Reported Ratio IC50?
64.2

Reported Ratio IC50, compound COc1ccc2cc(/C=N/n3c(=S)[nH]nc(Cc4ccccc4)c3=O)c(O)nc2c1 : ____
140

// query Ratio IC50 value for entry CC(C)Oc1ccc2nc(O)c(/C=N/n3c(=S)[nH]nc(Cc4ccccc4)c3=O)cc2c1
20.6

Proceeding to the next compound to report its Ratio IC50.
Return reported Ratio IC50; argument: COc1ccc2nc(O)c(/C=N/n3c(=S)[nH]nc(Cc4ccccc4)c3=O)cc2c1
154
